tested-target: T1, PUF4 RNA-binding domain (Saccharomyces cerevisiae, UniProt P25339 537-888)
T1 sequence: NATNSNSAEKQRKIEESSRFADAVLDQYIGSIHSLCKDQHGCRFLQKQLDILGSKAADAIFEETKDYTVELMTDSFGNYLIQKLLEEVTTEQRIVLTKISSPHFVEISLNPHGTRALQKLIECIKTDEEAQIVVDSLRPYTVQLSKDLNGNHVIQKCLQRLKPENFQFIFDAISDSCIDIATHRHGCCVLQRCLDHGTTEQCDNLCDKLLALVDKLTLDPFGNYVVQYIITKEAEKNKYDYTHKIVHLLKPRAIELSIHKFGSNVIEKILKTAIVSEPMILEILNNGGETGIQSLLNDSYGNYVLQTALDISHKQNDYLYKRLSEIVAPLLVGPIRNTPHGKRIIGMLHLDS
procedure-text: Mg; RNA-MaP; 20 mM Na-HEPES pH 7.4, 30 mM KOAc, 0.75 mM MgCl2, 0.1% Tween-20, 5% glycerol, 0.1 mg/mL BSA, 2 mM DTT; 25 C; 0.0125-409.6 nM protein
experimental-setup: tags: N-His6-TEV cleaved; C-SNAP kept, Cy3B-labelled; label: tethered on chip by stalled RNA polymerase
Give pKd for every item shown.
Answers are plain numbers, as −log10 of the molar value.

ACAAACCGGUAUAUAUAUAACAAAC (ssRNA) [Id_i_S3_P3E.6_K3.2_C3.3_[T-3C]_[C-2G]_[T-1G]_H3.2_A3.1_F3.1_T3.2] : 5.98
UCUCUUUGUACAAAAUCUCUU (ssRNA) [Ic_S1_P4E.1_K4.1_C4.1_H4.1_A4.1_[T5C]_[T7A]_F4.1_[T8A]_T4.1] : 7.47
UCUCUUUGUAUUUCCAUCUCUU (ssRNA) [Ic_S1_P5E.1_K5.1_C5.1_H5.1_A5.1_[A7T]_F5.1_[T8C]_[T9C]_T5.1] : 6.44
ACAAACGGUAUCAUUAACAAAC (ssRNA) [Ib_S3_P5E.1_K5.1_C5.1_H5.1_[T1G]_A5.1_[T6C]_F5.1_T5.1] : 5.84
ACAAACUGUAUUCCCAUUAACAAAC (ssRNA) [Ie_S3_P5E.1_K5.1_C5.1_H5.1_A5.1_[+6CCC]_F5.1_T5.1] : 6.69
Ic_S4_P5E.1_K5.1_C5.1_H5.1_A5.1_[T5C]_[T6C]_F5.1_[T8G]_[T9C]_[A10T]_T5.1 (ssRNA) RNA: UUUGACAACUGAUCGUUCUUUCUUGUACCAGCUUUCUUUCUCGAUCAGUUGUCUUU : 6.19

Below are some binders; for each one, tell me its pKd.
1. ACAAACCUUAUAUAUUAAUACAAAC (ssRNA) [Id_ii_S3_P4E.3_K4.2_C4.2_H4.2_A4.1_F4.1_T4.2_[G10A]]
2. Ie_S2_P4E.1_K4.1_C4.1_H4.1_[+2TCC]_A4.1_F4.1_T4.1 (ssRNA) RNA: UUUGAUUAAUAUGAUAUCGUUCUUUCUUGUCCUAUAUUAUUCUUUCUCGAUAUCAUAUUAAUCUUU
3. Ic_S4_P4E.1_K4.1_C4.1_H4.1_A4.1_[T7C]_F4.1_[A9T]_T4.1 (ssRNA) RNA: UUUGACAACUGAUCGUUCUUUCUUGUAUACUUUUCUUUCUCGAUCAGUUGUCUUU

**Result**
[7.85, 7.96, 8.16]
